Cited source for all entries: ChEMBL document CHEMBL3612002

target: Alpha-ketoglutarate-dependent dioxygenase FTO (Homo sapiens); test: Inhibition of FTO (unknown origin) (31 to 505 residues) expressed in Escherichia coli BL21 (DE3) cells assessed as reduction in 3-meT substrate demethylation by measuring demethylation ratio at 80 uM incubated for 17 hrs at 16 degC by HPLC method; design: scale not given: the % may be the effect or the level left
value.kind: Activity (%)

- O=C(Nc1cc(Cl)c(O)cc1O)C1(c2ccccc2Br)CCC1: 21.6
- O=C(Nc1cc(Cl)c(O)cc1O)C1(c2c(F)cccc2F)CCC1: 15.2
- O=C(Nc1cc(Cl)c(O)cc1O)C1(c2cccc3ccccc23)CCC1: 39

A: O=C(Nc1cc(Cl)c(O)cc1O)C1(c2cccc(C(F)(F)F)c2)CCC1
B: O=C(Nc1cc(Cl)c(O)cc1O)C1(c2cc(C(F)(F)F)cc(C(F)(F)F)c2)CCC1
C: O=C(Nc1cc(Cl)c(O)cc1O)C1(c2ccccc2Cl)CCC1
(Q) Arrange the 3 molecules from largest to smallest Activity. The reply should contain the labels ordered as requested.
(A) B, A, C
(B: 61.9%, A: 29.8%, C: 16.9%)

P: O=C(Nc1cc(Cl)c(O)cc1O)C1(c2ccc(Cl)cc2)CCC1
Q: CCCCc1cccc(C2(C(=O)Nc3cc(Cl)c(O)cc3O)CCC2)c1
R: O=C(Nc1cc(Cl)c(O)cc1O)C1(c2ccc([N+](=O)[O-])cc2)CCC1
(Q) Arrange the 3 molecules from largest to smallest Activity. The reply should contain the labels ordered as requested.
(A) R, P, Q
(R: 46.9%, P: 29.2%, Q: 18.2%)

1: O=C(Nc1cc(Cl)c(O)cc1O)C1(c2cccc(Oc3ccccc3)c2)CCC1
2: O=C(Nc1cc(Cl)c(O)cc1O)C1(c2ccc([N+](=O)[O-])cc2[N+](=O)[O-])CCC1
(Q) Which gives the smaller Activity number: 1 or 2 ? Reply briefly: the label of your chosen item.
(A) 1
(1: 17.3%, 2: 26.1%)

I: O=C(Nc1cc(Cl)c(O)cc1O)C1(c2cccc(Br)c2)CCC1
II: O=C(Nc1cc(Cl)c(O)cc1O)C1(c2ccc(Br)cc2)CCC1
(Q) Which gives the smaller Activity number: I or II ? Reply briefly: the label of your chosen item.
(A) I

A: O=C(Nc1cc(Cl)c(O)cc1O)C1(c2ccccc2)CCC1
B: CCCCc1ccc(C2(C(=O)Nc3cc(Cl)c(O)cc3O)CCC2)cc1
(Q) Which item exceeds the other in Activity, A or B ? Reply briefly: the label of your chosen item.
(A) B

A: O=C(Nc1cc(Cl)c(O)cc1O)C1(c2ccc(O)cc2)CCC1
B: O=C(Nc1cc(Cl)c(O)cc1O)C1(c2cccc(O)c2)CCC1
(Q) Which item exceeds the other in Activity, A or B ? Reply briefly: the label of your chosen item.
(A) B
(B: 25.8%, A: 17.8%)

* * *

target: Alpha-ketoglutarate-dependent dioxygenase FTO (Homo sapiens, UniProt Q9C0B1); experiment: Inhibition of FTO (unknown origin) (31 to 505 residues) expressed in Escherichia coli BL21 (DE3) cells assessed as reduction in 3-meT substrate demethylation by measuring demethylation ratio at 80 uM incubated for 17 hrs at 16 degC by HPLC method; design: scale not given: the % may be the effect or the level left
Sequence (Q9C0B1 whole entry, looked up, the tested form may be a part): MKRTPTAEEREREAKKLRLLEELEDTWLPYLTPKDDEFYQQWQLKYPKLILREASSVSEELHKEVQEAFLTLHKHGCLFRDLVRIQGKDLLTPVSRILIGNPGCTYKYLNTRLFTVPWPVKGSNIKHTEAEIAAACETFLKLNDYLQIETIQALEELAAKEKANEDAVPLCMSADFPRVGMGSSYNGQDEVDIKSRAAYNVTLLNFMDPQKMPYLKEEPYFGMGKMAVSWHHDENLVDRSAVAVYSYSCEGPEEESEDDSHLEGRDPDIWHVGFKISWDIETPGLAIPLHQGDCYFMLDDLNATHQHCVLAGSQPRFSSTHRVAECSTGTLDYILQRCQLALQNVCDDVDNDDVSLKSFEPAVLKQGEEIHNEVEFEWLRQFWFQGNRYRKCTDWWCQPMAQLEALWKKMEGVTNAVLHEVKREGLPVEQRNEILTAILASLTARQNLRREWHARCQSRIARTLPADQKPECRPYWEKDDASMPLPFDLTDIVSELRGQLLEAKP
value.kind: Activity (%)

• O=C(Nc1cc(Cl)c(O)cc1O)C1(c2ccc3ccccc3c2)CCC1 = 18.4
• O=C(Nc1cc(Cl)c(O)cc1O)C1(c2cccc(Cl)c2)CCC1 = 16.9
• O=C(Nc1cc(Cl)c(O)cc1O)C1(c2c(Cl)cccc2Cl)CCC1 = 15.4
